The values you see were collected from PubChem BioAssay (NCI).

Tested on: MOLT-4 leukemia
Test: NCI tumour cell line growth inhibition, 48 h
readout-name: TGI

Q: So what's the measured TGI for this one? Cc1cc(C)c(/C=C(\C(=C/c2c(C)cc(C)cc2C)[N+](=O)[O-])[N+](=O)[O-])c(C)c1
A: > 100 µM

Q: So what's the measured TGI for this one? COc1cccc2c1OCC1Cc3ccccc3OC21 (stereo unspecified)
A: > 100 µM

Q: So what's the measured TGI for this one? COC(=O)c1ccc2c(c1)C(=O)c1c-2n(CCCN=[N+]=[N-])c(=O)c2cc([N+](=O)[O-])ccc12
A: > 100 µM

Q: So what's the measured TGI for this one? C=C1C(=O)C23C(O)C1CC[C@H]2C12CCCC(C)(COC(C)=O)[C@H]1[C@H](O)[C@]3(O)OC2 (stereo partly specified)
A: 0.72 µM

Q: So what's the measured TGI for this one? O=C1CS(=O)(=O)C(c2cccc(Oc3ccccc3)c2)N1c1cc(Cl)ccc1Cl (stereo unspecified)
A: > 100 µM

Q: So what's the measured TGI for this one? Cc1cc(C)n(C2=NS(=O)(=O)c3ccccc3N2C)n1
A: > 100 µM

Q: So what's the measured TGI for this one? COc1cc(C(O)c2ccc3c(c2)OCO3)cc(OC)c1OC (stereo unspecified)
A: > 100 µM

Q: So what's the measured TGI for this one? CCOC(=O)c1c(SCCN2CCOCC2)n(-c2ccccc2)c(=S)n(-c2ccccc2)c1=O
A: 92.5 µM

Q: So what's the measured TGI for this one? C[C@H]1OC(=O)[C@@H]2N=NN(Cc3ccccc3)[C@H]12
A: > 100 µM

Q: So what's the measured TGI for this one? Nc1nc(Nc2ccccc2)sc1C(=O)c1ccco1
A: 35.7 µM

Q: So what's the measured TGI for this one? C/C(=C\CO)CC/C=C(\C)CNc1ccc([N+](=O)[O-])cc1
A: 18.4 µM

###

System: UACC-62 melanoma
Assay: NCI tumour cell line growth inhibition, 48 h; in the data active means GI50 below about 0.43 µM; inactive means the rest
Thanks in advance; please answer with one of these: active, inactive

Q: I'd appreciate the recorded outcome for COc1ccc(C2=C(N3CCc4ccccc43)C(=O)NC2=O)cc1 from this test.
A: inactive

Q: I'd appreciate the recorded outcome for CC(=O)Oc1c(C)c(C)c2c(c1C)CCC(C)(CC(=O)OCCCCCCCCCCC[P+](c1ccccc1)(c1ccccc1)c1ccccc1)O2 (stereo not given) from this test.
A: active

Q: I'd appreciate the recorded outcome for CCn1c(-c2nonc2N)nc2ccncc21 from this test.
A: inactive

Q: I'd appreciate the recorded outcome for CSc1ccc(N(C)c2nc(C)nc3c2CCC3)cc1 from this test.
A: active

Q: I'd appreciate the recorded outcome for c1cnn2ncc(-c3ccnc(Nc4ccc5c(c4)OCCO5)n3)c2c1 from this test.
A: active

Q: I'd appreciate the recorded outcome for Cc1cc2c(cc1Cl)S/C(=C/C(=O)O)C(Nc1cccc3nsnc13)=NS2(=O)=O from this test.
A: inactive

Q: I'd appreciate the recorded outcome for Cc1ccc(-n2nc(C(C)(C)C)cc2NC(=O)NCc2cc(F)ccc2Oc2ccc3c(cnn3CCO)c2)cc1 from this test.
A: inactive

Q: I'd appreciate the recorded outcome for CCCCCCCCCCCCCC[n+]1cccc(C(N)=O)c1 from this test.
A: inactive

Q: I'd appreciate the recorded outcome for O=C1/C(=C/c2ccc([N+](=O)[O-])cc2)COc2ccc(O)cc21 from this test.
A: inactive

Q: I'd appreciate the recorded outcome for COc1ccc(-c2cnoc2-c2cc(OC)c3c(c2)OCCO3)cc1 from this test.
A: active
